test: Solubility assay (kinetic solubility, PBS pH 7); type: physicochemical; settings: pH 7, aqueous buffer, kinetic from dmso stock, pH 7, PBS; read-out: Solubility
property: solubility kinetic

Query block: Input CC(=O)N[C@@H](CCCCN=[N+]=[N-])C(=O)NCC(=O)N[C@@H](CO)C(=O)NCC(=O)N[C@H](C(=O)N[C@@H](CO)C(=O)N[C@@H](Cc1ccccc1)C(=O)N[C@]1(C)CCCCCCC=CCCC[C@@](C)(C(=O)N[C@@H](CCC(=O)O)C(N)=O)NC(=O)[C@H](CC(C)C)NC(=O)[C@H](CC(C)C)NC(=O)[C@H](C)NC(=O)[C@H](Cc2c[nH]c3ccccc23)NC(=O)[C@H](Cc2ccc(O)cc2)NC(=O)[C@H](CCC(=O)O)NC1=O)[C@@H](C)O , output reported solubility kinetic.
Result block: 23 µM

---

test: in vitro; details: Nanoclick permeability assay EC50
Positions of bridges follow the written chain, without caps; N, C: chain ends. Non-standard residues stand in square brackets, D forms with d. Residues, ends and D or L forms follow the SMILES beside them. Lys(N3) = [N-]=[N+]=NCCCC[C@H](N)C(=O)O; R8 = C=CCCCCCC[C@@](C)(N)C(=O)O; S5 = C=CCCC[C@](C)(N)C(=O)O; βAla = NCCC(=O)O
property: cell entry EC50

Query block: Input CC(=O)N[C@@H](CCCCN=[N+]=[N-])C(=O)NCCC(=O)N[C@@H](CC(C)C)C(=O)N[C@H](C(=O)N[C@@H](Cc1ccccc1)C(=O)N[C@]1(C)CCCCCCC=CCCC[C@@](C)(C(=O)N[C@@H](CO)C(=O)N[C@@H](C)C(=O)N[C@@H](C)C(N)=O)NC(=O)[C@H](CC2CCC2)NC(=O)[C@H](CCC(N)=O)NC(=O)[C@H](CCC(=O)O)NC(=O)[C@H](Cc2c[nH]c3ccccc23)NC(=O)[C@H](Cc2ccc(O)cc2)NC(=O)[C@H](CCC(=O)O)NC1=O)[C@@H](C)O [MP-180] , output reported cell entry EC50.
Result block: 732 nM

Query block: Input CC(C)C[C@H](NC(=O)CCNC(=O)[C@@H](N)CCCCN=[N+]=[N-])C(=O)N[C@H](C(=O)N[C@@H](Cc1ccccc1)C(=O)N[C@]1(C)CCCCCCC=CCCC[C@@](C)(C(N)=O)NC(=O)[C@H](CC(C)C)NC(=O)[C@H](CC(C)C)NC(=O)[C@H](C)NC(=O)[C@H](Cc2c[nH]c3ccccc23)NC(=O)[C@H](Cc2ccc(O)cc2)NC(=O)[C@H](CCC(=O)O)NC1=O)[C@@H](C)O [MP-0176] (H-[Lys(N3)][βAla]LTF[R8]EYWALL[S5]-NH2; staple 6-13) , output reported cell entry EC50.
Result block: 217 nM

---

Quick reference: cell entry EC50 of the listed items.
experiment: in vitro; conditions: Nanoclick permeability assay EC50
Positions of bridges follow the written chain, without caps; N, C: chain ends. Non-standard residues stand in square brackets, D forms with d. Residues, ends and D or L forms follow the SMILES beside them. Lys(N3) = [N-]=[N+]=NCCCC[C@H](N)C(=O)O; R8 = C=CCCCCCC[C@@](C)(N)C(=O)O; Cba = N[C@@H](CC1CCC1)C(=O)O; S5 = C=CCCC[C@](C)(N)C(=O)O; βAla = NCCC(=O)O; Sar = CNCC(=O)O
# unit: nM | format: bare number

molecule | obs_value
CC(=O)N[C@@H](CCCCN=[N+]=[N-])C(=O)NCCC(=O)N[C@@H](CC(C)C)C(=O)N[C@H](C(=O)N[C@@H](Cc1ccccc1)C(=O)N[C@]1(C)CCCCCCC=CCCC[C@@](C)(C(=O)N[C@@H](CO)C(=O)N[C@@H](C)C(=O)N[C@@H](C)C(N)=O)NC(=O)[C@H](CC2CCC2)NC(=O)C(C)(C)NC(=O)[C@H](C)NC(=O)[C@H](Cc2c[nH]c3ccccc23)NC(=O)[C@H](Cc2ccc(O)cc2)NC(=O)[C@H](CCC(=O)O)NC1=O)[C@@H](C)O | 195

Query block: Input CC(=O)N(C)CC(=O)N[C@@H](CCCCN=[N+]=[N-])C(=O)NCCC(=O)N[C@@H](C)C(=O)N[C@H](C(=O)N[C@@H](Cc1ccccc1)C(=O)N[C@]1(C)CCCCCCC=CCCC[C@@](C)(C(=O)N[C@@H](C)C(=O)N[C@@H](C)C(=O)N[C@@H](C)C(N)=O)NC(=O)[C@H](CC2CCC2)NC(=O)[C@H](C)NC(=O)[C@H](C)NC(=O)[C@H](Cc2c[nH]c3ccccc23)NC(=O)[C@H](Cc2ccc(O)cc2)NC(=O)[C@H](C)NC1=O)[C@@H](C)O [MP-895] (Ac-[Sar][Lys(N3)][βAla]ATF[R8]AYWAA[Cba][S5]AAA-NH2; staple 7-14) , output reported cell entry EC50.
Result block: 197

---

assay: physchem
Positions of bridges follow the written chain, without caps; N, C: chain ends. Non-standard residues stand in square brackets, D forms with d. Residues, ends and D or L forms follow the SMILES beside them. R8 = C=CCCCCCC[C@@](C)(N)C(=O)O; Cba = N[C@@H](CC1CCC1)C(=O)O; S5 = C=CCCC[C@](C)(N)C(=O)O
Quick reference: EPSA of the listed items.
# unit: A^2 | format: bare number

Below, each entry is followed by its recorded EPSA result.
compound | property | obs_value
CC(=O)N[C@@H](CC(C)C)C(=O)N[C@H](C(=O)N[C@@H](Cc1ccccc1)C(=O)N[C@]1(C)CCCCCCC=CCCC[C@@](C)(C(=O)N[C@@H](Cc2c[nH]cn2)C(=O)N[C@@H](C)C(=O)N[C@@H](C)C(N)=O)NC(=O)[C@H](CC2CCC2)NC(=O)[C@H](CC(C)C)NC(=O)[C@H](CCC(N)=O)NC(=O)[C@H](Cc2c[nH]c3ccccc23)NC(=O)[C@H](Cc2ccc(O)cc2)NC(=O)[C@H](CCC(=O)O)NC1=O)[C@@H](C)O [MP-201, ATSP-7041 (S12H)] (Ac-LTF[R8]EYWQL[Cba][S5]HAA-NH2; staple 4-11) | EPSA | 218
CC(=O)N[C@@H](CC(C)C)C(=O)N[C@@H](CCCNC(=N)N)C(=O)N[C@@H](Cc1ccccc1)C(=O)N[C@]1(C)CCCCCCC=CCCC[C@@](C)(C(=O)N[C@@H](CO)C(=O)N[C@@H](C)C(=O)N[C@@H](C)C(N)=O)NC(=O)[C@H](CC2CCC2)NC(=O)[C@H](CC(C)C)NC(=O)[C@H](CCC(N)=O)NC(=O)[C@H](Cc2c[nH]c3ccccc23)NC(=O)[C@H](Cc2ccc(O)cc2)NC(=O)[C@H](CCC(=O)O)NC1=O [MP-1192] (Ac-LRF[R8]EYWQL[Cba][S5]SAA-NH2; staple 4-11) | EPSA | 220
CC(=O)N[C@@H](CCCCN=[N+]=[N-])C(=O)NCCC(=O)N[C@@H](C)C(=O)N[C@H](C(=O)N[C@@H](Cc1ccccc1)C(=O)N[C@]1(C)CCCCCCC=CCCC[C@@](C)(C(=O)N[C@@H](CO)C(=O)N[C@@H](C)C(=O)N[C@@H](C)C(N)=O)NC(=O)[C@H](CC2CCC2)NC(=O)[C@H](CCC(N)=O)NC(=O)[C@H](C)NC(=O)[C@H](Cc2c[nH]c3ccccc23)NC(=O)[C@H](Cc2ccc(O)cc2)NC(=O)[C@H](CCC(=O)O)NC1=O)[C@@H](C)O [MP-952, AZIDE-ATSP-7041 (L1A)] | EPSA | 223

Query block: Input CC(=O)N[C@@H](CCCCN=[N+]=[N-])C(=O)NCCC(=O)N[C@@H](CC(C)C)C(=O)N(C)[C@H](C(=O)N[C@@H](Cc1ccccc1)C(=O)N[C@]1(C)CCCCCCC=CCCC[C@@](C)(C(=O)N[C@@H](CO)C(=O)N[C@@H](C)C(=O)N[C@@H](C)C(N)=O)NC(=O)[C@H](CC2CCC2)NC(=O)[C@H](CCC(N)=O)NC(=O)[C@H](C)NC(=O)[C@H](Cc2c[nH]c3ccccc23)NC(=O)[C@H](Cc2ccc(O)cc2)NC(=O)[C@H](CCC(=O)O)NC1=O)[C@@H](C)O , output reported EPSA.
Result block: 219

---

experiment: Experimental LogD (partition coefficient)
Positions of bridges follow the written chain, without caps; N, C: chain ends. Non-standard residues stand in square brackets, D forms with d. Residues, ends and D or L forms follow the SMILES beside them. Lys(N3) = [N-]=[N+]=NCCCC[C@H](N)C(=O)O; R8 = C=CCCCCCC[C@@](C)(N)C(=O)O; Cba = N[C@@H](CC1CCC1)C(=O)O; S5 = C=CCCC[C@](C)(N)C(=O)O; βAla = NCCC(=O)O

compound | Partition Coeff LogD
CC(=O)N[C@@H](CCCCN=[N+]=[N-])C(=O)NCCC(=O)N[C@@H](CC(C)C)C(=O)N[C@H](C(=O)N[C@@H](Cc1ccccc1)C(=O)N[C@]1(C)CCCCCCC=CCCC[C@@](C)(C(=O)N[C@@H](CO)C(=O)N[C@@H](C)C(=O)N[C@@H](C)C(N)=O)NC(=O)[C@H](CC2CCC2)NC(=O)[C@H](CCC(N)=O)NC(=O)[C@H](C)NC(=O)[C@H](Cc2c[nH]c3ccccc23)NC(=O)[C@H](CCC(=O)O)NC(=O)[C@H](C)NC1=O)[C@@H](C)O [MP-029] (Ac-[Lys(N3)][βAla]LTF[R8]AEWAQ[Cba][S5]SAA-NH2; staple 6-13) | Poorly Behaved
CC(=O)N[C@@H](CCCCN=[N+]=[N-])C(=O)N[C@@H](CCCCN)C(=O)N[C@@H](CCCCN)C(=O)N[C@@H](CC(C)C)C(=O)N[C@H](C(=O)N[C@@H](Cc1ccccc1)C(=O)N[C@]1(C)CCCCCCC=CCCC[C@@](C)(C(=O)N[C@@H](CO)C(=O)N[C@@H](C)C(=O)N[C@@H](C)C(N)=O)NC(=O)[C@H](CC2CCC2)NC(=O)[C@H](CCC(N)=O)NC(=O)[C@H](C)NC(=O)[C@H](Cc2c[nH]c3ccccc23)NC(=O)[C@H](Cc2ccc(O)cc2)NC(=O)[C@H](CCC(=O)O)NC1=O)[C@@H](C)O | Poorly Behaved
CC(=O)N[C@@H](CCCCN=[N+]=[N-])C(=O)N[C@H](C(=O)N[C@@H](CO)C(=O)N[C@@H](Cc1ccccc1)C(=O)N[C@]1(C)CCCCCCC=CCCC[C@@](C)(C(=O)N[C@@H](CO)C(=O)N[C@@H](C)C(=O)N[C@@H](C)C(N)=O)NC(=O)[C@H](CC2CCC2)NC(=O)[C@H](CCC(N)=O)NC(=O)[C@H](C)NC(=O)[C@H](Cc2c[nH]c3ccccc23)NC(=O)[C@H](Cc2ccc(O)cc2)NC(=O)[C@H](C)NC1=O)[C@@H](C)O [MP-703] (Ac-[Lys(N3)]TSF[R8]AYWAQ[Cba][S5]SAA-NH2; staple 5-12) | Poorly Behaved
CC(=O)N[C@@H](CCC(=O)O)C(=O)N[C@@H](CCCCN=[N+]=[N-])C(=O)NCCCCCC(=O)N[C@H](C(=O)N[C@@H](CO)C(=O)N[C@@H](Cc1ccccc1)C(=O)N[C@]1(C)CCCCCCC=CCCC[C@@](C)(C(N)=O)NC(=O)[C@H](CC(C)C)NC(=O)[C@H](CC(C)C)NC(=O)[C@H](C)NC(=O)[C@H](Cc2c[nH]c3ccccc23)NC(=O)[C@H](Cc2ccc(O)cc2)NC(=O)[C@H](CCC(=O)O)NC1=O)[C@@H](C)O | Poorly Behaved
